These entries and their values trace back to the supplement of paper PMC13380429.

System: Caco-2
Procedure Summary: drug sensitivity score (DSS) for viability; higher = more toxic; extreme values may be limits of the assay
Details: 72 h
Quantity Measured: drug sensitivity score
Lab note: jot down the number only; don't add units.

Example results:
The compound listed as CC(=O)[C@H]1CC[C@H]2[C@@H]3CCC4=CC(=O)CC[C@]4(C)[C@H]3CC[C@]12C has a reported drug sensitivity score of 1.3

Reported drug sensitivity score ( N#Cc1ccc(N(Cc2ccc(Br)cc2)n2cnnc2)cc1 ) = 0.2

Recorded result, N[C@@]1(C(=O)O)CC[C@H]2[C@H](C(=O)O)[C@H]21 , drug sensitivity score: 0

The reported drug sensitivity score of the compound O=C(NS(=O)(=O)c1ccc(Br)s1)c1ccc(Cl)cc1Cl was 0

Per the record, O[C@@H](COc1cccc2ncccc12)CN1CCN([C@@H]2c3ccccc3[C@@H]3[C@H](c4ccccc42)C3(F)F)CC1 has drug sensitivity score of 3.6

Others:
Input Clc1ccccc1CN1CCc2sccc2C1 . Output drug sensitivity score: 0

Measured drug sensitivity score, COC(=O)N1CCN(Cc2cccc(NC(=O)Nc3ccc(C)nc3)c2F)CC1 : 0

----------
System: Vero E6
Procedure Summary: cell viability relative to DMSO; higher = less toxic
Details: 72 h; 1 nM
Entries and their measured cell viability follow.
Hi! Could you send only the number? It should be in %, unit omitted.

These recorded examples may help you get a feel for the data.
// cell viability lookup, compound = C[C@H](N)[C@H](O)c1cccc(O)c1 [metaraminol] , result: 105

Data point: Cc1ccc(S(=O)(=O)N2CCC[C@H]2c2ccc(F)cc2)cc1 [Ro-67-7476] ; cell viability = 109

Memo: COc1cc(Br)c(S(=O)(=O)Nc2ccc(C(F)(F)F)c(O[C@@H]3CCN(C)C3)c2)cc1OC , reported cell viability: 91.5

Recorded cell viability (compound C=CC(=O)c1ccc2ccccc2c1 [JAK3-inhibitor-V] ): 99.5

The compound CCCCN(CCCC)CC(O)c1cc(Cl)cc2c1-c1ccc(Cl)cc1/C2=C/c1ccc(Cl)cc1 (stereo unspecified) [lumefantrine] showed cell viability equal to 102

Query compound follows.
response.value for CCCCc1ccc(NS(=O)(=O)c2ccc(F)cc2)cc1 (field: cell viability) = 101

----------
Let's look at some molecules and their measured cell viability.
System: Calu-3
Procedure Summary: cell viability relative to DMSO; higher = less toxic
Details: 72 h; 100 nM

Recorded cell viability (molecule Oc1ccc(-c2nc(-c3ccc(F)cc3)c(-c3ccncc3)[nH]2)cc1 ): 104%

Just so you know, measured cell viability for CCOc1ccc(-c2nc(-c3cccc4c3CCC4NCCO)no2)cc1OCC (configuration not stated) [CYM-5442] came out at 91.2%

According to the records, this molecule CCc1cc(C(N)=S)ccn1 [ethionamide] displays cell viability of 98.7%

The recorded cell viability for entry C=CC(C)(C)c1cc(/C=C/C(=O)c2ccc(O)cc2)c(OC)cc1O [licochalcone-A] equals 106%

Lab note: measured cell viability of Cc1cn([C@H]2O[C@@H](CO)[C@H](O)[C@H]2F)c(=O)[nH]c1=O [clevudine] was 106%

Note to self: cell viability recorded for CCN(CC)CCOc1ccc2c(c1)C(=O)c1cc(OCCN(CC)CC)ccc1-2 [tilorone] was 95.7%

# evaluate next
Reported cell viability for COC(=O)c1c(-c2cc(OC)c(OC)c(OC)c2)c2ccnc(OCc3ncccn3)c2c(=O)n1Cc1ccnc(C)c1 [T-0156] was 90.2%
